- Tested on: SF-268
- assayMethodText: NCI in vitro 60-cell drug screen (SRB assay)
- Assay type: cell-based
- testContext: SF-268 (CNS cancer); 10^-5 molar concentration; 48 hours
# Growth percent values compiled below

molecule | unitName | Growth percent
O=c1c2cc(Cl)ccc2sc2c(N3CCN(Cc4ccccc4)CC3)nc3ccccc3c12 [Compound 11] | % | 100.42
CN1CCN(c2nc3ccccc3c3c(=O)c4cc(Cl)ccc4sc23)CC1 [Compound 8] | % | 82.98
O=c1c2cc(Cl)ccc2sc2c(N3CCN(c4ccccc4)CC3)nc3ccccc3c12 [Compound 12] | % | 103.82
CN(C)c1nc2ccccc2c2c(=O)c3cc(Cl)ccc3sc12 [Compound 6] | % | 77.86
O=C(O)c1c(Sc2ccc(Cl)cc2)c(O)nc2ccccc12 [Compound 2] | % | 113.60
O=c1c2cc(Cl)ccc2sc2c(N3CCN(CCO)CC3)nc3ccccc3c12 [Compound 10] | % | 87.80
O=c1c2cc(Cl)ccc2sc2c(N3CCOCC3)nc3ccccc3c12 [Compound 13] | % | 103.56
O=c1c2cc(Cl)ccc2sc2c(O)nc3ccccc3c12 [Compound 4] | % | 95.26
O=c1c2ccc(Cl)cc2sc2c(Cl)nc3ccccc3c12 [Compound 3] | % | 109.60
COc1nc2ccccc2c2c(=O)c3cc(Cl)ccc3sc12 [Compound 5] | % | 94.12

----------
- Tested on: SK-MEL-28
- assayMethodText: NCI in vitro 60-cell drug screen (SRB assay)
- Assay type: cell-based
- testContext: SK-MEL-28 (Melanoma); 10^-5 molar concentration; 48 hours
As shown below, each of these molecules has a reported Growth percent value.
measuredEndpoint: Growth percent (%)

molecule | measuredEndpoint | unitName | reported
O=c1c2cc(Cl)ccc2sc2c(N3CCOCC3)nc3ccccc3c12 [Compound 13] | Growth percent | % | 111.28
COc1nc2ccccc2c2c(=O)c3cc(Cl)ccc3sc12 [Compound 5] | Growth percent | % | 112.31
O=c1c2cc(Cl)ccc2sc2c(N3CCN(Cc4ccccc4)CC3)nc3ccccc3c12 [Compound 11] | Growth percent | % | 104.19
O=C(O)c1c(Sc2ccc(Cl)cc2)c(O)nc2ccccc12 [Compound 2] | Growth percent | % | 98.95
O=c1c2ccc(Cl)cc2sc2c(Cl)nc3ccccc3c12 [Compound 3] | Growth percent | % | 101.80
CN(C)c1nc2ccccc2c2c(=O)c3cc(Cl)ccc3sc12 [Compound 6] | Growth percent | % | 96.60
O=c1c2cc(Cl)ccc2sc2c(N3CCN(CCO)CC3)nc3ccccc3c12 [Compound 10] | Growth percent | % | 100.66
CN1CCN(c2nc3ccccc3c3c(=O)c4cc(Cl)ccc4sc23)CC1 [Compound 8] | Growth percent | % | 107.92
O=c1c2cc(Cl)ccc2sc2c(N3CCN(c4ccccc4)CC3)nc3ccccc3c12 [Compound 12] | Growth percent | % | 104.22
O=c1c2cc(Cl)ccc2sc2c(O)nc3ccccc3c12 [Compound 4] | Growth percent | % | 116.59

----------
- Test system: DU-145
- assayMethodText: MTT assay for cell cytotoxicity
- Format: cell-based, human
- testContext: 72 h, at least three independent experiments, read-out: MTT assay (IC50 ± SD) DU-145
pIC50: −log10 of the molar value.

substanceSmiles | pIC50
O=c1c2cc(Cl)ccc2sc2c(NCCCCCO)nc3ccccc3c12 | 5.31
O=c1c2cc(Cl)ccc2sc2c(NCCCO)nc3ccccc3c12 | 5.23
O=c1c2cc(Cl)ccc2sc2c(NCCO)nc3ccccc3c12 | 4.94
